Procedure Details: Quantitative High-Throughput drug screen in 47 multiple myeloma cell lines against the NCATS MIPE library collection: LP1_DSMZ cell viability assay (AID 1918982); further: nearly all actives have a fitted effect of over 35% in size
Condition: LP1 myeloma viability, CellTiter-Glo ATP luminescence, 48 h; series mostly up to 45.8 µM
Description: PI: Beverly A. Mock Ph.D. Laboratory of Cancer Biology and Genetics, Center for Cancer Research, National Cancer Institute, National Institute of Health, Bethesda, Maryland […] 5; Detector; 425V; Luminescence; Viewlux PerkinElmer. […] 1. […] Briefly, the corresponding myeloma cell lines were screened in 1,536-well plates with 500 cells, 5-uL per well for inhibition of cell viability (assessed by measuring ATP levels with CellTiterGlo). […]
Inconclusive results are not listed. Activity calls are given as the source filed them. The call rests on the fitted dose curve; in most records, active means well fitted cell-killing curve with a large enough effect; inconclusive means small, poorly fitted or top-dose-only effect, or effect the other way; inactive means no such curve, though single readings can be large or run the other way.
Give your call using only these classes: class 1 (active), class 0 (inactive)

{"columns": ["Structure Smiles String", "Label"],
 "data": [
  ["COCCCOc1cc(C[C@@H](C[C@H](N)[C@@H](O)C[C@H](C(=O)NCC(C)(C)C(N)=O)C(C)C)C(C)C)ccc1OC", "class 0"]
]}

Req: Fill in: this test's call for C[C@@H]1CN(c2c(F)c(N)c3c(=O)c(C(=O)O)cn(C4CC4)c3c2F)C[C@H](C)N1 is ___
Resp: class 0

Req: Fill in: this test's call for Cc1noc(NS(=O)(=O)c2ccc(N)cc2)c1C is ___
Resp: class 0

Req: Fill in: this test's call for COc1nc(N)nc2c1ncn2[C@@H]1O[C@H](CO)[C@@H](O)[C@@H]1O is ___
Resp: class 0

Req: Fill in: this test's call for CCCOc1ccc(C(=O)OCCN(CC)CC)cc1N is ___
Resp: class 0

Req: Fill in: this test's call for CCc1cc(C(N)=S)ccn1 is ___
Resp: class 0

Req: Fill in: this test's call for C[C@@H](NCCCc1cccc(C(F)(F)F)c1)c1cccc2ccccc12 is ___
Resp: class 0

Req: Fill in: this test's call for O=c1cc(O)c(Cl)c[nH]1 is ___
Resp: class 0

Req: Fill in: this test's call for C[C@@H](CN1CC(=O)NC(=O)C1)N1CC(=O)NC(=O)C1 is ___
Resp: class 0

Req: Fill in: this test's call for N[C@@H](Cc1ccc(O)c(O)c1)C(=O)O is ___
Resp: class 0

* * *

Tested on: P93_24
Procedure Details: qHTS profiling for inhibitors of Plasmodium falciparum proliferation (AID 504749); further: nearly all actives have a fitted effect of over 60% in size
Condition: P. falciparum in erythrocytes, SYBR Green DNA, 72 h; series mostly up to 28.7 µM
Inconclusive results are not listed. Activity calls are given as the source filed them. Calls follow the shape of the dose curve; as a rule, active = well fitted inhibition curve with a large enough effect; inconclusive = small, poorly fitted or top-dose-only effect; inactive = flat fitted curve, though single readings scatter.
Give your call using only these classes: active, inactive

Known results for molecules:
{"columns": ["Molecule", "Assayed Target", "Label"],
 "data": [
  ["C#CCN[C@@H]1CCc2ccccc21", "P93_24", "inactive"],
  ["S=P(N1CC1)(N1CC1)N1CC1", "P93_24", "inactive"],
  ["CCCc1nc(C)c2c(=O)[nH]c(-c3cc(S(=O)(=O)N4CCN(CC)CC4)ccc3OCC)nn12", "P93_24", "active"],
  ["CC[C@H](NC(C)C)[C@H](O)c1ccc(O)c2[nH]c(=O)ccc12", "P93_24", "inactive"],
  ["COc1cc([C@@H]2c3cc4c(cc3[C@H](O)[C@H]3COC(=O)[C@H]23)OCO4)cc(OC)c1OC", "P93_24", "active"]
]}

Req: Fill in: this test's call for CNNCc1ccc(C(=O)NC(C)C)cc1 is ___
Resp: inactive

Req: Fill in: this test's call for O=NN(CCCl)C(=O)NC1CCCCC1 is ___
Resp: inactive

Req: Fill in: this test's call for CNC1CCCN(c2c(F)cc3c(=O)c(C(=O)O)cn(C4CC4)c3c2OC)C1 (configuration not stated) is ___
Resp: inactive

Req: Fill in: this test's call for CC1=CC(=O)c2ccccc2C1=O is ___
Resp: inactive

Req: Fill in: this test's call for Cn1nnc2c(C(N)=O)ncn2c1=O is ___
Resp: inactive

Req: Fill in: this test's call for Cc1ncc([N+](=O)[O-])n1CCO is ___
Resp: inactive
